Tested on: human SMAD7 mRNA
test_method_notes: Dose-dependent inhibition of human SMAD7 mRNA expression in Hep3B cells (Example 3, Study 1 and 2)
Format: cell-based
cond: 312.5 nM, electroporation, approximately 16 hours, Study 1, relative to untreated control cells
Strand notation (5' to 3'): a small letter for the sugar, then the base; units joined by * are phosphorothioate-linked, units joined directly phosphodiester-linked; [ ] holds rarer units or linkages, { } end groups; capitals alone tell only the bases. e = 2'-O-(2-methoxyethyl) (MOE); [5mC] = 5-methylcytosine; d = 2'-deoxy (DNA)
property_measured: % inhibition of SMAD7 mRNA expression (%)

>>> experimental_value("771799 (antisense e[5mC]*eT*eT*e[5mC]*e[5mC]*dA*dA*d[5mC]*dA*d[5mC]*dA*dT*dG*d[5mC]*dT*e[5mC]*eT*eG*e[5mC]*eA) [compound 771799]")
0
>>> experimental_value("771399 (antisense eG*e[5mC]*e[5mC]*e[5mC]*eG*dG*dG*d[5mC]*dA*dG*dG*dA*dG*d[5mC]*dG*eG*e[5mC]*eG*eG*e[5mC]) [compound 771399]")
0
>>> experimental_value("771734 (antisense e[5mC]*eT*e[5mC]*eA*eA*dA*d[5mC]*d[5mC]*dT*dT*dT*d[5mC]*dA*dG*dA*e[5mC]*e[5mC]*eA*eT*e[5mC]) [compound 771734]")
0
>>> experimental_value("771414 (eT*e[5mC]*eG*eG*e[5mC]*dT*dG*dT*d[5mC]*d[5mC]*dG*dT*d[5mC]*dG*d[5mC]*e[5mC]*e[5mC]*e[5mC]*eT*eT; antisense) [compound 771414]")
0
>>> experimental_value("771403 (antisense eG*eA*eA*e[5mC]*eA*dT*dG*dA*d[5mC]*d[5mC]*dT*d[5mC]*d[5mC]*dG*d[5mC]*eA*e[5mC]*eA*e[5mC]*e[5mC]) [compound 771403]")
5
>>> experimental_value("771820 (antisense eG*eG*eT*e[5mC]*eA*dA*dA*d[5mC]*dT*dT*dG*dT*dG*dG*dT*eA*eA*eA*eA*eT) [compound 771820]")
3
>>> experimental_value("771782 (antisense eT*eA*eG*eG*eA*d[5mC]*dT*dG*dG*dA*dA*dG*dA*dG*d[5mC]*eT*eT*eT*eG*eG) [compound 771782]")
0
>>> experimental_value("771509 (antisense eG*eG*e[5mC]*e[5mC]*eT*dG*d[5mC]*dT*d[5mC]*dA*dG*d[5mC]*dT*d[5mC]*dA*e[5mC]*eG*e[5mC]*eT*e[5mC]) [compound 771509]")
0
>>> experimental_value("771570 (antisense eT*eG*eG*eG*eA*d[5mC]*dT*dG*d[5mC]*dA*dA*dA*d[5mC]*d[5mC]*dT*e[5mC]*eT*e[5mC]*eT*eG) [compound 771570]")
0
>>> experimental_value("771711 (antisense e[5mC]*eG*e[5mC]*eA*e[5mC]*dT*dT*d[5mC]*dA*d[5mC]*dA*dG*dT*dT*d[5mC]*eA*e[5mC]*eA*eG*eG) [compound 771711]")
17
>>> experimental_value("771786 (antisense eA*eG*e[5mC]*eT*e[5mC]*dA*dA*dA*d[5mC]*dT*dT*dT*dG*dA*dA*eG*e[5mC]*e[5mC]*eT*eT) [compound 771786]")
2
>>> experimental_value("771345 (antisense eA*e[5mC]*eA*eG*e[5mC]*dA*dT*d[5mC]*dT*dG*dG*dA*d[5mC]*dA*dG*eT*e[5mC]*eA*eG*eT) [compound 771345]")
6
>>> experimental_value("771822 (antisense e[5mC]*eA*e[5mC]*e[5mC]*eA*dA*dA*dA*d[5mC]*dA*dA*dG*dT*dG*dT*e[5mC]*eT*eA*e[5mC]*e[5mC]) [compound 771822]")
0
>>> experimental_value("771572 (antisense e[5mC]*eT*eT*eG*eG*dG*dA*d[5mC]*dT*dG*d[5mC]*dA*dA*dA*d[5mC]*e[5mC]*eT*e[5mC]*eT*e[5mC]) [compound 771572]")
0
>>> experimental_value("771583 (antisense eT*eG*e[5mC]*eT*e[5mC]*d[5mC]*dT*dG*dG*d[5mC]*dA*dG*d[5mC]*dT*dG*e[5mC]*eT*eG*eG*eG) [compound 771583]")
0
>>> experimental_value("771439 (eG*eG*e[5mC]*eT*eG*d[5mC]*dG*d[5mC]*dG*d[5mC]*d[5mC]*dG*dG*d[5mC]*dG*eG*eG*e[5mC]*eG*e[5mC]; antisense) [compound 771439]")
0

###

Test system: human SMAD7 mRNA
test_method_notes: Antisense inhibition of human SMAD7 mRNA expression in Hep3B cells by 3-10-3 cEt gapmers, 10,000 nM, electroporation (Example 2)
Type: cell-based
cond: Hep3B cells, 10,000 nM antisense oligonucleotide, electroporation, approximately 24 hours, RT-PCR primer probe set RTS5062, relative to untreated control cells
Strand notation (5' to 3'): a small letter for the sugar, then the base; units joined by * are phosphorothioate-linked, units joined directly phosphodiester-linked; [ ] holds rarer units or linkages, { } end groups; capitals alone tell only the bases. k = constrained ethyl (cEt); [5mC] = 5-methylcytosine; d = 2'-deoxy (DNA)
property_measured: % Inhibition (%)

>>> experimental_value("799956 (antisense kT*k[5mC]*kT*d[5mC]*d[5mC]*dA*dG*d[5mC]*d[5mC]*dG*d[5mC]*dT*d[5mC]*kA*kG*kA) [compound 799956]")
57
>>> experimental_value("799974 (kG*kA*k[5mC]*dT*d[5mC]*d[5mC]*dA*dG*dT*dG*d[5mC]*d[5mC]*dA*kA*kT*k[5mC]; antisense) [compound 799974]")
23
>>> experimental_value("799913 (antisense kG*kG*k[5mC]*d[5mC]*dT*d[5mC]*dA*dG*dA*dG*dG*dA*dA*kG*kG*kG) [compound 799913]")
18
>>> experimental_value("799993 (kA*kT*kA*dA*dT*dG*dA*dA*dG*dT*dG*dA*dT*kA*kT*kT; antisense) [compound 799993]")
0
>>> experimental_value("798931 (antisense kG*kA*kG*dG*dA*dA*dA*dA*dT*dA*dT*dT*dA*kG*k[5mC]*kA) [compound 798931]")
69
>>> experimental_value("799994 (kA*k[5mC]*kT*dT*dG*dG*dA*dT*dA*dA*dT*dG*dA*kA*kG*kT; antisense) [compound 799994]")
2
>>> experimental_value("799933 (antisense kT*kA*k[5mC]*dT*dA*dT*dT*d[5mC]*dA*dT*d[5mC]*dA*d[5mC]*k[5mC]*k[5mC]*kT) [compound 799933]")
22
>>> experimental_value("799919 (antisense kT*k[5mC]*k[5mC]*dT*dA*dA*dG*dA*dG*d[5mC]*dA*dT*dT*kT*kA*kT) [compound 799919]")
0
>>> experimental_value("799875 (kG*kT*kG*d[5mC]*dA*dG*dA*d[5mC]*dT*dG*dG*dA*dA*kA*kA*kG; antisense) [compound 799875]")
41
>>> experimental_value("798842 (k[5mC]*kA*kG*d[5mC]*dT*dG*dA*d[5mC]*dT*d[5mC]*dT*dT*dG*kT*kT*kG; antisense) [compound 798842]")
0
>>> experimental_value("799950 (antisense kG*k[5mC]*kA*d[5mC]*dA*dA*dG*dT*d[5mC]*dA*d[5mC]*dT*dG*kG*k[5mC]*k[5mC]) [compound 799950]")
0
>>> experimental_value("799838 (antisense kT*kT*kG*d[5mC]*dA*d[5mC]*d[5mC]*d[5mC]*d[5mC]*d[5mC]*dA*dT*dA*kA*k[5mC]*kT) [compound 799838]")
2
>>> experimental_value("799990 (kT*kT*kG*d[5mC]*dA*d[5mC]*d[5mC]*dT*dG*dG*d[5mC]*dA*dA*k[5mC]*k[5mC]*kT; antisense) [compound 799990]")
0
>>> experimental_value("799860 (kT*kG*k[5mC]*d[5mC]*dG*dA*d[5mC]*dA*d[5mC]*dA*dT*dG*dA*kG*kG*k[5mC]; antisense) [compound 799860]")
0
>>> experimental_value("799934 (antisense kA*k[5mC]*kT*dT*dT*dT*dT*dA*d[5mC]*dT*d[5mC]*dT*dG*kT*k[5mC]*kT) [compound 799934]")
61
>>> experimental_value("798825 (k[5mC]*kT*kG*dG*dA*d[5mC]*dA*d[5mC]*dA*dG*dT*dA*dG*kA*kG*k[5mC]; antisense) [compound 798825]")
24

###

In this section, each of the substances is paired with its reported % Inhibition.
System: human SMAD7 mRNA
test_method_notes: Antisense inhibition of human SMAD7 mRNA expression in Hep3B cells by 5-10-5 MOE gapmers, single concentration, electroporation, RT-PCR (Example 1, Study 1 and 2)
Type: cell-based
cond: Study 2, electroporation with 15,000 nM antisense oligonucleotide, 5-10-5 MOE gapmers targeting SEQ ID NO: 1 and 2
Strand notation (5' to 3'): a small letter for the sugar, then the base; units joined by * are phosphorothioate-linked, units joined directly phosphodiester-linked; [ ] holds rarer units or linkages, { } end groups; capitals alone tell only the bases. e = 2'-O-(2-methoxyethyl) (MOE); [5mC] = 5-methylcytosine; d = 2'-deoxy (DNA)
property_measured: % Inhibition (%)

>>> experimental_value("771463 (antisense eG*eG*e[5mC]*eT*e[5mC]*d[5mC]*dT*dG*dG*dA*d[5mC]*dA*d[5mC]*dA*dG*eT*eA*eG*eA*eG) [compound 771463]")
10
>>> experimental_value("771751 (antisense eT*eG*eG*e[5mC]*e[5mC]*dA*dT*dG*d[5mC]*dT*dG*dG*d[5mC]*dA*dA*eA*eT*eA*eG*eG) [compound 771751]")
25
>>> experimental_value("771370 (antisense e[5mC]*eA*eT*eT*e[5mC]*d[5mC]*dA*dA*dA*dA*dG*dG*d[5mC]*dT*dG*eA*e[5mC]*eT*e[5mC]*eG) [compound 771370]")
18
>>> experimental_value("771779 (antisense eA*e[5mC]*eA*e[5mC]*eA*d[5mC]*dT*dG*d[5mC]*dT*dG*d[5mC]*d[5mC]*dT*dT*eT*eT*e[5mC]*eT*e[5mC]) [compound 771779]")
33
